test-description: Evaluation of in vivo pharmacokinetics (blood and brain concentrations, LC-MS/MS)
test-parameters: male, rat; SD rats, intravenous 1 mg/kg bw, 5 min, brain; read-out: brain concentration i.v. 5 min
Protocol: Pharmacological test example 4: Evaluation of in vivo pharmacokinetics To SD rats (male, 7 weeks old), the test compound was orally administered (p. o.) at an amount of 50 mg/kg bw or intravenously administered (i.v.) at an amount of 1 mg/kg bw and the concentrations in the blood and brain were measured up to 3 hours. The administration vehicle was an 80% PEG 400 aqueous solution. […]
Below, each entry is listed with its recorded concentration at 5 min.
Respond with the bare value in ng/mL.

Input line: State the recorded concentration at 5 min for this entry: "COc1cc(OCc2ccccn2)ccc1/C=C/c1cc(/C=C/c2ccc3cc[nH]c3c2)[nH]n1"
Output line: 48.7

Input line: Same for "COc1cc(OCc2ccccn2)ccc1/C=C/C(=O)CC(=O)/C=C/c1ccc2cc[nH]c2c1"
Output line: 5.15

====

parameter: melting point

COc1cc(OCc2ccncc2)ccc1/C=C/c1cc(/C=C/c2cccc3cc[nH]c23)[nH]n1 = 201 to 206 °C

Input line: State the recorded melting point for this entry: "CCN(CC)c1ccc(/C=C/c2cc(/C=C/c3ccc4cc[nH]c4c3)[nH]n2)cc1"
Output line: 201 to 204 °C

Input line: Same for "C(=C\c1cc(/C=C/c2ccccc2-c2cccnc2)n[nH]1)/c1ccc2cc[nH]c2c1"
Output line: 248 to 255 °C

Input line: Same for "C(=C\c1cc(/C=C/c2ccc3cc[nH]c3c2)[nH]n1)/c1cccc(OCc2ccccn2)c1"
Output line: 193 to 195 °C

Input line: Same for "COc1cc(OCc2ccccn2)ccc1/C=C/c1cc(/C=C/c2c[nH]c3ccccc23)[nH]n1"
Output line: 112 to 116 °C

Input line: Same for "COc1ccc(/C=C/c2cc(/C=C/c3ccc4cc[nH]c4c3)[nH]n2)cc1OCc1ccccn1"
Output line: 110 to 117 °C

Input line: Same for "COc1cc(OCc2ccncc2)ccc1/C=C/c1cc(/C=C/c2ccc3[nH]ccc3c2)[nH]n1"
Output line: 133 to 141 °C

Input line: Same for "COc1ccc(Br)c(/C=C/c2cc(/C=C/c3ccc4cc[nH]c4c3)[nH]n2)c1"
Output line: 103 to 109 °C

====

test-system: Aβ 1-42 (Homo sapiens, UniProt P05067)
Construct: Aβ 1-42 (Peptide Institute, Inc.) was dissolved in 0.3% ammonia water; purchased Peptide Institute, Inc
Sequence (P05067 672-713): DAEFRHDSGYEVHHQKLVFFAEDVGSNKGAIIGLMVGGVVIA
test-description: Determination of Aβ aggregation inhibitory activity (thioflavin T fluorescence)
Format: biochemical
test-parameters: Aβ 1-42, 37° C. for 24 hours, thioflavin T; read-out: IC50 (μM) Test example 3 (Aβ aggregation inhibitory activity)
parameter: log10(IC50) (log10 of the value in µM)
Hi team, quick reminder: these entries are log10 of IC50 (µM).

Examples with their reported log10(IC50) follow.
COc1cc(OCc2ccccn2)ccc1/C=C/c1cc(/C=C/c2ccc(OCc3ccccn3)cc2OC)[nH]n1 = 0.28
CN1CCCN(c2ccc(/C=C/c3cc(/C=C/c4ccc5cc[nH]c5c4)[nH]n3)c(Br)c2)CC1 = 0.39
COc1cc(OCc2nccs2)ccc1/C=C/c1cc(/C=C/c2ccc3cc[nH]c3c2)[nH]n1 = 0.65
COc1cc(OCc2ccccn2)ccc1/C=C/c1cc(/C=C/c2ccc(O)c(N)c2)[nH]n1 = 0.70
CCN(CC)c1ccc(/C=C/c2cc(/C=C/c3ccc4cc[nH]c4c3)[nH]n2)c(OCc2ccccc2)c1 = -0.40

Input line: State the recorded log10(IC50) for this entry: "Oc1cc(OCc2ccccn2)ccc1/C=C/c1cc(/C=C/c2ccc3cc[nH]c3c2)[nH]n1"
Output line: 0.20

Input line: Same for "COc1cc(OCCN2CCOCC2)ccc1/C=C/c1cc(/C=C/c2ccc3cc[nH]c3c2)[nH]n1"
Output line: 0.88

Input line: Same for "COc1cc(OCc2ccccn2)ccc1/C=C/c1cc(/C=C/c2cc3ccccc3[nH]2)[nH]n1"
Output line: 0.46

====

parameter: melting point

COc1cc(OCc2ccncc2)ccc1/C=C/c1cc(/C=C/c2cc3ccccc3[nH]2)[nH]n1 [Example 53] = 124 to 134 °C
CN(C)c1ccc(/C=C/c2cc(/C=C/c3ccc4cc[nH]c4c3)[nH]n2)cc1 [Example 105] = 224 to 227 °C
COc1cc(OCc2ccccn2)ccc1/C=C/c1cc(/C=C/c2c[nH]c3ncccc23)[nH]n1 [Example 75] = 219 to 223 °C
COc1cc(OCCN2CCN(C)CC2)ccc1/C=C/c1cc(/C=C/c2ccc3cc[nH]c3c2)[nH]n1 [Example 28] = 134 to 142 °C
COc1cc(OC(c2ccccc2)c2ccccc2)ccc1/C=C/c1cc(/C=C/c2ccc3cc[nH]c3c2)[nH]n1 [Example 64] = 114 to 119 °C

Input line: State the recorded melting point for this entry: COc1cc(/C=C/c2cc(/C=C/c3ccc4cc[nH]c4c3)[nH]n2)ccc1OCc1ccccn1 [Example 17]
Output line: 236 to 243 °C

Input line: Same for COc1cc(OCc2cccnc2)ccc1/C=C/c1cc(/C=C/c2ccc3[nH]ccc3c2)[nH]n1 [Example 44]
Output line: 127 to 135 °C

Input line: Same for COc1cc(OCc2ccccn2)ccc1/C=C/c1cc(/C=C/c2c[nH]c3ccc(F)cc23)[nH]n1 [Example 99]
Output line: 209 to 213 °C

Input line: Same for CCN(CC)c1ccc(/C=C/c2cc(/C=C/c3ccc4cc[nH]c4c3)[nH]n2)c(OCCN2CCOCC2)c1 [Example 98]
Output line: 96 to 99 °C

Input line: Same for COc1cc(OCc2ccccn2)ccc1/C=C/c1cc(/C=C/c2ccc3ccn(C)c3c2)[nH]n1 [Example 35]
Output line: 172 to 174 °C

====

test-description: Evaluation of in vivo pharmacokinetics (blood and brain concentrations, LC-MS/MS)
test-parameters: male, rat; SD rats, intravenous 1 mg/kg bw, 180 min, brain; read-out: brain concentration i.v. 180 min
Below, each entry is listed with its recorded concentration at 180 min.
In your response, the unit should come after the numeric value.

COc1cc(OCc2ccccn2)ccc1/C=C/C(=O)CC(=O)/C=C/c1ccc2cc[nH]c2c1 = 0.93 ng/mL

Input line: State the recorded concentration at 180 min for this entry: "COc1cc(OCc2ccccn2)ccc1/C=C/c1cc(/C=C/c2ccc3cc[nH]c3c2)[nH]n1"
Output line: 17.5 ng/mL

====

test-system: Aβ 1-42 (Homo sapiens, UniProt P05067)
Construct: Aβ 1-42 (Peptide Institute, Inc.) was dissolved in 0.3% ammonia water; purchased Peptide Institute, Inc
test-description: Determination of Aβ aggregation inhibitory activity (thioflavin T fluorescence)
Assay type: biochemical
test-parameters: Aβ 1-42, 37° C. for 24 hours, thioflavin T; read-out: IC50 (μM) Test example 3 (Aβ aggregation inhibitory activity)
// boundary case: IC50 equal to 2 µM maps to No; strictly smaller maps to Yes

Worked cases, answers included:
C(=C\c1cc(/C=C/c2ccc3cc[nH]c3c2)[nH]n1)/c1ccc2cc[nH]c2c1 = No
COc1cc(OCc2ccccn2)ccc1/C=C/c1cc(/C=C/c2ccc3[nH]cnc3c2)[nH]n1 = No
COc1cc(OCC2CCCO2)ccc1/C=C/c1cc(/C=C/c2ccc3cc[nH]c3c2)[nH]n1 (centres unmarked) = No
COc1cc(OCc2ccccn2)ccc1/C=C/c1cc(/C=C/c2ccc3ccn(C)c3c2)[nH]n1 = Yes
COc1ccc([N+](=O)[O-])c(/C=C/c2cc(/C=C/c3ccc4cc[nH]c4c3)[nH]n2)c1 = No

Input line: Check if IC50 falls below 2 µM for "COc1cc(OCc2ccccn2)ccc1/C=C/c1cc(/C=C/c2ccc3cc[nH]c3c2)[nH]n1" .
Output line: Yes

Input line: Same for "CN1CCN(c2ccc(/C=C/c3cc(/C=C/c4ccc5cc[nH]c5c4)[nH]n3)cc2)CC1"
Output line: No

Input line: Same for "CCN(CC)c1ccc(/C=C/c2cc(/C=C/c3ccc4cc[nH]c4c3)[nH]n2)c(OCCN2CCOCC2)c1"
Output line: No

====

Below, each entry is listed with its recorded melting point.

Examples with their reported melting point follow.
Oc1cc(OCc2ccccn2)ccc1/C=C/c1cc(/C=C/c2ccc3cc[nH]c3c2)[nH]n1 = 202.5 to 203.5 °C
CN1CCN(c2ccc(/C=C/c3cc(/C=C/c4ccc5cc[nH]c5c4)[nH]n3)c(Br)c2)CC1 = 120 to 124 °C
CCN(CC)c1ccc(/C=C/c2cc(/C=C/c3ccc4cc[nH]c4c3)[nH]n2)c(OCc2ccccc2)c1 = 78.1 to 80 °C
C(=C\c1cc(/C=C/c2ccc3[nH]ccc3c2)[nH]n1)/c1ccc(OCc2ccccn2)cc1 = 95 to 102 °C
C(=C\c1cc(/C=C/c2ccc3[nH]ccc3c2)[nH]n1)/c1cccc(OCc2ccccn2)c1 = 183 to 186 °C
Brc1cc(N2CCOCC2)ccc1/C=C/c1cc(/C=C/c2ccc3cc[nH]c3c2)[nH]n1 = 143 to 148 °C
COc1cc(/C=C/c2cc(/C=C/c3c[nH]c4ccccc34)[nH]n2)ccc1OCc1ccccn1 = 120 to 130 °C

Input line: State the recorded melting point for this entry: "COc1cc(/C=C/c2cc(/C=C/c3ccc4cc[nH]c4c3)[nH]n2)cc(OCc2ccccn2)c1"
Output line: 88 to 93 °C
